B1: Pistol ribozyme (parent)
chain: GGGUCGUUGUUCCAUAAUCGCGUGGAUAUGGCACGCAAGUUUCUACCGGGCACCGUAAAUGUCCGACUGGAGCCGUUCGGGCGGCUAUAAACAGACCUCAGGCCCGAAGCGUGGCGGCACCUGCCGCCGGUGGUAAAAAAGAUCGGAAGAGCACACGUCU

# Variants of: B1
# experimentalDetails: aptazyme ON/OFF ratio, guanine; higher = stronger switching; co-transcriptional cleavage with and without guanine
testReadout: aptazyme ON/OFF ratio

Consider U7A U8A G9A U10G U11A C12U C13G . Its measured aptazyme ON/OFF ratio is 1.16

Consider U8A G9A U10A U11C C12U . Its measured aptazyme ON/OFF ratio is 1.08

Consider G9A U10G C12A C13A . Its measured aptazyme ON/OFF ratio is 1.29

Consider U8A U10G U11C C12A C13U . Its measured aptazyme ON/OFF ratio is 1.21

Consider U7C U8C G9U U10G C12G C13A . Its measured aptazyme ON/OFF ratio is 1.09

Consider U7C G9C U10C U11C C12A C13G . Its measured aptazyme ON/OFF ratio is 1.05

Consider U7C U8G G9A U11C C12A C13A . Its measured aptazyme ON/OFF ratio is 1.1

Consider U7C U8A G9U U10C U11C C12A C13G . Its measured aptazyme ON/OFF ratio is 1.29

Consider U7A U8C U10A U11G C12G C13G . Its measured aptazyme ON/OFF ratio is 1.28

Consider U7C U8C U10C U11C C12U C13A . Its measured aptazyme ON/OFF ratio is 1.31

Consider U7C G9C U10C C12U . Its measured aptazyme ON/OFF ratio is 1.09

Consider U7G U8C G9U U10A U11A C12A . Its measured aptazyme ON/OFF ratio is 1.63

Consider U7G U8A G9C U10A U11C C12A . Its measured aptazyme ON/OFF ratio is 1.05

Consider U7C U8G G9U U10A U11A C12A C13U . Its measured aptazyme ON/OFF ratio is 1.24

Consider U7G U10A U11C C12A C13A . Its measured aptazyme ON/OFF ratio is 1.12

Consider U7G U8A U10A U11G C12G C13U . Its measured aptazyme ON/OFF ratio is 1.3

Consider U7G U10A U11C C12U . Its measured aptazyme ON/OFF ratio is 1.05

Consider U7C U8C G9C U10G U11A C12U C13G . Its measured aptazyme ON/OFF ratio is 1.07

Consider U7G U8G G9C U10C U11C C12U C13G . Its measured aptazyme ON/OFF ratio is 1.23

Consider U7A U8A G9A U11C C13G . Its measured aptazyme ON/OFF ratio is 1.12

Consider U7C G9C U10G U11C C12U C13U . Its measured aptazyme ON/OFF ratio is 1.16

Consider G9U U10A U11A C12A C13U . Its measured aptazyme ON/OFF ratio is 1.41
